Literature IC50 values, system: human HIF-PHD2 (Homo sapiens, UniProt Q9GZT9).

{"substance-smiles": "Cn1c(=O)c(C(=O)NCC(=O)O)c(O)c2cc(F)cnc21", "IC50": "50 to 100 nM"}
{"substance-smiles": "CC1(C)C(=O)C(C(=O)NCC(=O)O)=C(O)c2cc(Cl)c(F)cc21", "IC50": "< 100 nM"}
{"substance-smiles": "Cn1c(=O)c(C(=O)NCC(=O)O)c(O)c2ccnc(-c3ccccc3)c21", "IC50": "< 50 nM"}
{"substance-smiles": "Cn1c(=O)c(C(=O)NCC(=O)O)c(O)c2cc(C#N)cnc21", "IC50": "< 50 nM"}
{"substance-smiles": "CCOC(=O)CCNC(=O)c1ncc(C(=O)NC(c2ccccc2)c2ccccc2)c(O)n1", "IC50": "0.5 to 20 nM"}
{"substance-smiles": "O=C(O)CCC(=O)C1=C(O)c2ccc(Cl)cc2C2(CCOCC2)C1=O", "IC50": "< 100 nM"}
{"substance-smiles": "O=C(O)CNC(=O)C1=C(O)c2cc(Cl)c(Cl)cc2C2(CCOCC2)C1=O", "IC50": "< 100 nM"}

====

Literature IC50 values, system: human HIF-PHD2 (Homo sapiens, UniProt Q9GZT9).
measured-endpoint: IC50 (nM)

{"compound": "CCOC(=O)OC(C)OC(=O)CCNC(=O)c1ncc(C(=O)NC(c2ccccc2)c2ccccc2)c(O)n1 (centres unmarked)", "u": "nM", "reading-qualifier": "=", "numeric-value": 6.67}
{"compound": "O=C(O)CNC(=O)c1c(O)c2c(n(Cc3ccc(OC(F)F)cc3)c1=O)CCOC2", "u": "nM", "reading-qualifier": "=", "numeric-value": 13.4}
{"compound": "O=C(O)c1cnn(-c2nc(O)c3c(cnn3CCOc3ccc4c(c3)CCCC4)n2)c1", "u": "nM", "reading-qualifier": "=", "numeric-value": 14}
{"compound": "CC1(C#N)C(=O)C(C(=O)NCC(=O)O)=C(O)c2ccc(Br)cc21 (single isomer, unassigned)", "u": "nM", "reading-qualifier": "<", "numeric-value": 100}
{"compound": "CC(C)OC(=O)CCNC(=O)c1ncc(C(=O)NC(c2ccccc2)c2ccccc2)c(O)n1", "u": "nM", "reading-qualifier": "=", "numeric-value": 15.9}

====

Literature IC50 values, system: human HIF-PHD2 (Homo sapiens, UniProt Q9GZT9).

{"molecule": "Cn1c(=O)c(C(=O)NCC(=O)O)c(O)c2cc(C3CCOCC3)cnc21", "IC50": "< 50 nM"}
{"molecule": "Cn1nc(C2CCCCC2)c2nc(-n3cc(C(=O)O)cn3)nc(O)c21", "IC50": "> 300 nM"}
{"molecule": "Cn1c(=O)c(C(=O)NCC(=O)O)c(O)c2cc(Cl)[n+]([O-])cc21", "IC50": "< 50 nM"}
{"molecule": "CC1(C#N)C(=O)C(C(=O)NCC(=O)O)=C(O)c2ccc(F)cc21 (centres unmarked)", "IC50": "< 100 nM"}
{"molecule": "COc1ccnc(-c2cnc3c(c2)c(O)c(C(=O)NCC(=O)O)c(=O)n3C)n1", "IC50": "< 50 nM"}

====

Literature IC50 values, system: human HIF-PHD2 (Homo sapiens, UniProt Q9GZT9).

{"substance-smiles": "C[C@@H](c1cccc(F)c1)n1nc(C2CC2)c2nc(-n3cc(C(=O)O)cn3)nc(O)c21", "IC50": "> 300 nM"}
{"substance-smiles": "CC(C)c1cc2c(O)c(C(=O)NCC(=O)O)c(=O)n(C)c2cn1", "IC50": "< 50 nM"}
{"substance-smiles": "CC1(C)C(=O)C(C(=O)NCC(=O)O)=C(O)c2ccc(F)c(F)c21", "IC50": "< 100 nM"}
